# Tested on: SK-HEP1
# PROTOCOL: Cytotoxicity against human SKHEP1 cells assessed as growth inhibition
# Type: functional, cell-based
pIC50 overview
// field semantics: pIC50 = negative decimal log of concentration (mol/L)

Here is how some compounds turned out for pIC50.
COc1cc(C#C/C=C\C#Cc2cc(C(F)(F)F)ccc2N)cc(OC)c1OC
4.55
COc1ccc(C#C/C=C\C#Cc2cc(OC)c(OC)c(OC)c2)c(OC)c1
4.84
COc1ccc(C#C/C=C\C#Cc2cc(OC)c(OC)c(OC)c2)c([N+](=O)[O-])c1
5.37
COc1cc2c(c(OC)c1OC)-c1ccc(OC)c(=O)cc1[C@@H](NC(C)=O)CC2
6.11

Ask: Give the reported pIC50 for COc1cc(C#C/C=C\C#Cc2ccccc2C#N)cc(OC)c1OC (system: SK-HEP1).
Result: 5.92

Ask: Find the measured pIC50: item Nc1ccccc1C#C/C=C\C#Cc1ccccc1C(F)(F)F , target or system SK-HEP1.
Result: 5.18

Ask: # query: pIC50 | item COc1cc(C#C/C=C\C#Cc2ccccc2N)cc(OC)c1OC | system: SK-HEP1
Result: 6.70

Ask: What is its pIC50 for SK-HEP1? Entry: COc1ccc(C#C/C=C\C#Cc2cc(OC)c(OC)c(OC)c2)c(N)c1
Result: 5.28

Ask: Fill in the recorded pIC50 for this compound, with SK-HEP1 as test system: COc1cc(C#C/C=C\C#Cc2ccccn2)cc(OC)c1OC
Result: 6.37

Ask: What reported pIC50 corresponds to COc1cc(C#C/C=C\C#Cc2ccccc2[N+](=O)[O-])cc(OC)c1OC on SK-HEP1?
Result: 5.87

Ask: API: value(readout=pIC50, system=SK-HEP1) for record COc1cc(C#C/C=C\C#Cc2ccccc2SC)cc(OC)c1OC
Result: 4.88

Ask: Missing value: pIC50, SK-HEP1, entry COc1ccccc1C#C/C=C\C#Cc1cc(OC)c(OC)c(OC)c1 . Fill in?
Result: 6.47

Cited source for all entries: ChEMBL document CHEMBL2331259
